Some binders, each annotated with its measured Kd.
# target-system: HLA-A*0201 loaded with the Carcinoembryonic antigen (CEA)-derived … peptide (biotinylated on the C-terminal biotinylation tag)
# experiment-summary: SPR (Biacore), Example 4

The examples below pair each entry with its known result.
1) SEQ ID NO 70 (receptor) MHLPKPTLWAEPGSVITLESPVTLRCQGGQETQEYRLYREKKTAPWITRIPQELVKKGQFPIPSITWEHAGRYRCYYGSDTSQWSASSDPLELVVTGVYIKPTLSAQPSPVVNSGGNVTLQCDSQVAFDGFILCKEGEDEHPQCLNSQPHARGSSRAIFSVGPVSPSRRWWYRCYAYDSNSPYEWSLPSDLLELDVDG = ≤ 1 µM
2) SEQ ID NO 72 (receptor) MHLPKPTLWAEPGSVITMDQPVTLRCQGGQETQEYRLYREKKTAPWITRIPQELVKKGQFPIPSITWEHAGRYRCMQYTLTAGRSESSDPLELVVTGVYIKPTLSAQPSPVVNSGGNVTLQCDSQVAFDGFILCKEGEDEHPQCLNSQPHARGSSRAIFSVGPVSPSRRWWYRCYAYDSNSPYEWSLPSDLLELDVDG = ≤ 1 µM

// moving on: another record for Kd
Query: Name the recorded Kd for SEQ ID NO 64 (receptor) MHLPKPTLWAEPGSVITMDQPVTLRCQGGQETQEYRLYREKKTAPWITLIPQELVKKGQFPIPSITWEHAGRYRCYYGSDTSQWSASSDPLELVVTGVYIKPTLSAQPSPVVNSGGNVTLQCDSQVAFDGFILCKEGEDGHPQCLNSQPHARGSSRAIFSVGPVSPSRRWWYWCYAYDSNSPYEWSLPSDLLELDVDG .
Reply: ≤ 1 µM

Reference source for all entries: patent US20090208447A1
